# MEASURED_TARGET: Solute carrier family 2, facilitated glucose transporter member 4 (Homo sapiens, UniProt P14672)
# Sequence (P14672 whole entry): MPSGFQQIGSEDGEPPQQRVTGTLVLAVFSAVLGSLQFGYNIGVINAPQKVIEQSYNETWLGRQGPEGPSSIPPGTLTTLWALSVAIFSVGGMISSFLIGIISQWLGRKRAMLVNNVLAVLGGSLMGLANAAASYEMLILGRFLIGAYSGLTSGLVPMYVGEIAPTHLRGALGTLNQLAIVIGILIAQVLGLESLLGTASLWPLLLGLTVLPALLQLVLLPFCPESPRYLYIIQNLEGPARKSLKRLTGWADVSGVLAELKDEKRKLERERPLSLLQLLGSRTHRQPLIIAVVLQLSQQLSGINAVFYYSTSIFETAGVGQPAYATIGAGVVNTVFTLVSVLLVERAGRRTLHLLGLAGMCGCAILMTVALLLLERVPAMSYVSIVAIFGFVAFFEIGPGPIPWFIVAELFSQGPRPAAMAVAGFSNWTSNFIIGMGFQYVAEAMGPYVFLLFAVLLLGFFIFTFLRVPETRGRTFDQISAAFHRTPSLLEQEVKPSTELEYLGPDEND
# ASSAY_COMMENT: Inhibition of human GLUT4 expressed in CHO cells measured after 15 mins by cell-titer-Glo luminescent cell viability assay

INPUT_SMILES	UNIT_TAG	IC50
Cc1c(NC(=O)c2cc(C(N)=O)nc3cc(F)ccc23)c(C(F)(F)F)nn1Cc1ccc(C#N)cc1	nM	200
